Every entry's value here was drawn from PubChem BioAssay AID463173.

Reported values of survival for individual entries
System: DeltatarO mutant
Assay Procedure: S. aureus survival, RN4220 and DeltatarO strains – OD600, teichoic acid synthesis inhibitors, primary screen (AID 463173)
Recorded Conditions: S. aureus RN4220 wild type/DeltatarO growth, OD600, 18 h, stronger effect = lower value, screened at 18.75 µg/mL (by protocol)
The whole screen tested about 52,000 compounds, of which about 4,300 (8.3%) were called active. The entries come from a sample that favours actives as a whole.
# unit: % | format: bare number

Solved entries:
# Compound, Observation Type, Val
measured = [
    ("CCc1ccc(Nc2nc3ccccc3nc2NS(=O)(=O)c2ccccc2)cc1", "survival", 28),
    ("CC(=O)c1ccc(NC(=O)CCCSc2nc(-c3ccco3)cc(C(F)(F)F)n2)cc1", "survival", 98),
]

Give the reported survival for CC(C)(C)C(=O)NCCc1nc2ccccc2n1CCCCOc1ccccc1 (system: DeltatarO mutant).
41

Give the reported survival for CC(C)(C)OC(=O)N1CCC(c2c(C(=O)NCc3ccc(F)cc3)cnn2-c2ccc(F)cc2)CC1 (system: DeltatarO mutant).
-5

Give the reported survival for COc1cccc(NC(=O)CCSc2nc(-c3ccco3)cc(C(F)(F)F)n2)c1 (system: DeltatarO mutant).
27

Give the reported survival for COc1cc(Cl)c(C)cc1Nc1nc2ccccc2nc1NS(=O)(=O)c1ccccc1 (system: DeltatarO mutant).
116

Give the reported survival for Cc1ccc2nc(NS(=O)(=O)c3ccc(Cl)cc3)c(Nc3ccc(C(=O)O)cc3)nc2c1 (system: DeltatarO mutant).
109

Give the reported survival for COc1ccc(NC(=O)NC(C)c2c(-n3cccc3)sc3c2CCN(C)C3)c(OC)c1 (stereo not given) (system: DeltatarO mutant).
70

Give the reported survival for CCOC(=O)c1c(C)[nH]c(CCC(=O)NCc2ccc(N(C)C)cc2)c1C (system: DeltatarO mutant).
83

Give the reported survival for Cc1cccc(C)c1OCc1nc2c3cnn(-c4cccc(F)c4)c3ncn2n1 (system: DeltatarO mutant).
78

Give the reported survival for Cc1ccc(OCCCCn2c(CCNC(=O)C(C)(C)C)nc3ccccc32)cc1 (system: DeltatarO mutant).
42

Give the reported survival for CCc1nnc(SCc2c(F)cccc2Cl)c2cc3sccc3n12 (system: DeltatarO mutant).
94

Give the reported survival for CCCNC(=O)CCSc1nc(-c2ccc3c(c2)OCO3)cc(C(F)(F)F)n1 (system: DeltatarO mutant).
68

Give the reported survival for COc1ccc(Nc2nc3c(S(=O)(=O)c4ccccc4)nnn3c3ccc(Cl)cc23)cc1OC (system: DeltatarO mutant).
117

Give the reported survival for CCOc1ccc(CNC(=O)Cn2c(=O)c3cccn3c3ccccc32)cc1 (system: DeltatarO mutant).
60

Give the reported survival for Cc1ccc(OCC(=O)Nc2ccc3nc(SCC(=O)Nc4ccc(C)cc4C)sc3c2)cc1 (system: DeltatarO mutant).
73

Give the reported survival for COc1ccc(NC(=O)Cn2cc(C#N)c3ccccc32)cc1 (system: DeltatarO mutant).
67

Give the reported survival for COc1ccc2nc(NS(=O)(=O)c3ccc(C)cc3)c(Nc3cc(Cl)ccc3OC)nc2c1 (system: DeltatarO mutant).
22

Give the reported survival for COc1cc(NC(=O)N2CCC3(CC2)Nc2cc(F)ccc2-n2cccc23)cc(OC)c1OC (system: DeltatarO mutant).
105

Give the reported survival for CN(CC(=O)Nc1ccc(F)cc1F)S(=O)(=O)c1ccc(C(=O)N2CCOCC2)s1 (system: DeltatarO mutant).
88

Give the reported survival for CCOC(=O)c1ccc(Nc2nc3ccccc3nc2NS(=O)(=O)c2ccc(Cl)cc2)cc1 (system: DeltatarO mutant).
37

Give the reported survival for CC(C)NC(=O)CCSc1nc(-c2ccc3c(c2)OCO3)cc(C(F)(F)F)n1 (system: DeltatarO mutant).
57

Give the reported survival for CC(=O)NCCc1nc2ccccc2n1CCCCOc1ccc(Cl)cc1 (system: DeltatarO mutant).
61

Give the reported survival for CCN1c2cc(C)ccc2-n2cccc2C12CCN(C(=O)Nc1cc(OC)c(OC)c(OC)c1)CC2 (system: DeltatarO mutant).
93

Give the reported survival for Cc1cccc(C)c1Nc1nc2ccccc2nc1NS(=O)(=O)c1ccccc1 (system: DeltatarO mutant).
79

Give the reported survival for Cc1ccccc1OCCn1c(CCNC(=O)C2CCCCC2)nc2ccccc21 (system: DeltatarO mutant).
77

Give the reported survival for CC(C)(C)NC(=O)CCSc1nc(-c2ccc3c(c2)OCO3)cc(C(F)(F)F)n1 (system: DeltatarO mutant).
15

Give the reported survival for O=C(CCS(=O)(=O)c1nc(-c2ccc3c(c2)OCO3)cc(C(F)(F)F)n1)Nc1ccc(F)c(Cl)c1 (system: DeltatarO mutant).
23
